Every entry's value here was drawn from ChEMBL document CHEMBL3351768.

Test system: Streptococcus pneumoniae
Test Name: Antibacterial activity against ciprofloxacin-susceptible Streptococcus pneumoniae ATCC49619 by broth microdilution method
Format: functional
Property Measured: MIC (µg/mL)
Number in µg/mL, nothing else.

Kindly note: Streptococcus pneumoniae, `CCNCC(Cl)=C1CCN(c2c(F)cc3c(=O)c(C(=O)O)cn(C4CC4)c3c2OC)CC1` , MIC value reported: 0.25

Kindly note: Streptococcus pneumoniae, `COc1c(N2CCC(=C(C)CN)CC2)c(F)cc2c(=O)c(C(=O)O)cn(C3CC3)c12` , MIC value reported: 0.12

Kindly note: Streptococcus pneumoniae, `NCC(Cl)=C1CCN(c2nc3c(cc2F)c(=O)c(C(=O)O)cn3C2CC2)CC1` , MIC value reported: 0.12

Kindly note: Streptococcus pneumoniae, CC(CN)=C1CCN(c2c(F)cc3c(=O)c(C(=O)O)cn4c3c2OCC4C)CC1 (racemic) , MIC value reported: 1

Kindly note: Streptococcus pneumoniae, `CC(CN)=C1CCN(c2nc3c(cc2F)c(=O)c(C(=O)O)cn3C2CC2)CC1` , MIC value reported: 0.12

Kindly note: Streptococcus pneumoniae, `NCC(Cl)=C1CCN(c2cc3c(cc2F)c(=O)c(C(=O)O)cn3C2CC2)CC1` , MIC value reported: 0.12

Kindly note: Streptococcus pneumoniae, CC1COc2c(N3CCC(=C(F)CN)CC3)c(F)cc3c(=O)c(C(=O)O)cn1c23 (racemic) , MIC value reported: 0.5

Kindly note: Streptococcus pneumoniae, `C[C@H]1COc2c(N3CCC(=C(Cl)CN)CC3)c(F)cc3c(=O)c(C(=O)O)cn1c23` , MIC value reported: 0.03

Kindly note: Streptococcus pneumoniae, `O=C(O)c1cn(C2CC2)c2cc(N3CCNCC3)c(F)cc2c1=O` , MIC value reported: 1

Kindly note: Streptococcus pneumoniae, `COc1c(N2CCC(=C(Cl)CN(C)C)CC2)c(F)cc2c(=O)c(C(=O)O)cn(C3CC3)c12` , MIC value reported: 0.5

Kindly note: Streptococcus pneumoniae, `COc1c(N2CCC(=C(Cl)CNC(C)C)CC2)c(F)cc2c(=O)c(C(=O)O)cn(C3CC3)c12` , MIC value reported: 0.5

Kindly note: Streptococcus pneumoniae, `COc1c(N2CCC(=C(F)CN)CC2)c(F)cc2c(=O)c(C(=O)O)cn(C3CC3)c12` , MIC value reported: 0.12

Kindly note: Streptococcus pneumoniae, `NCC(F)=C1CCN(c2c(F)cc3c(=O)c(C(=O)O)cn(C4CC4)c3c2OC(F)F)CC1` , MIC value reported: 0.25

Kindly note: Streptococcus pneumoniae, `NCC(Cl)=C1CCN(c2c(F)cc3c(=O)c(C(=O)O)cn(C4CC4)c3c2OC(F)F)CC1` , MIC value reported: 0.12

Kindly note: Streptococcus pneumoniae, `CNCC(Cl)=C1CCN(c2c(F)cc3c(=O)c(C(=O)O)cn(C4CC4)c3c2OC)CC1` , MIC value reported: 0.06

Kindly note: Streptococcus pneumoniae, `NCC(F)=C1CCN(c2nc3c(cc2F)c(=O)c(C(=O)O)cn3C2CC2)CC1` , MIC value reported: 0.12

Kindly note: Streptococcus pneumoniae, `NCC=C1CCN(c2nc3c(cc2F)c(=O)c(C(=O)O)cn3C2CC2)CC1` , MIC value reported: 0.5

Kindly note: Streptococcus pneumoniae, `NCC(F)=C1CCN(c2cc3c(cc2F)c(=O)c(C(=O)O)cn3C2CC2)CC1` , MIC value reported: 0.06

Kindly note: Streptococcus pneumoniae, `CC(CN)=C1CCN(c2cc3c(cc2F)c(=O)c(C(=O)O)cn3C2CC2)CC1` , MIC value reported: 1

Kindly note: Streptococcus pneumoniae, `COc1c(N2CCC(=C(Cl)CN)CC2)c(F)cc2c(=O)c(C(=O)O)cn(C3CC3)c12` , MIC value reported: 0.06
